# Tested on: 885512-296-R-J2-PDC complex spheroid viability
# protocol text: Anticancer human tumor 885512-296-R-J2-PDC patient-derived breast carcinoma cell line growth inhibition [GQUAD]
# run parameters: second compound 3.16 µM; first compound 0.316 µM; stronger effect = lower value
outcome measure: viability, T/C

Task: Supply viability, T/C measured with 885512-296-R-J2-PDC complex spheroid viability for CC(C)(O)C1CCC(Nc2ccc3ncc(-c4cccc(C(F)(F)F)c4)n3n2)CC1 (stereo unspecified) + CN(C)c1ccc(Nc2c3ccc(NC(=O)CCN4CCCC4)cc3nc3cc(NC(=O)CCN4CCCC4)ccc23)cc1 .
Result: 80.5%

Task: Supply viability, T/C measured with 885512-296-R-J2-PDC complex spheroid viability for COc1ncnc(C2CC2)c1-c1ncc2cnn(Cc3ccc(-c4nc(C(F)(F)F)cn4C(C)C)cc3)c2n1 + CN(C)c1ccc(Nc2c3ccc(NC(=O)CCN4CCCC4)cc3nc3cc(NC(=O)CCN4CCCC4)ccc23)cc1 .
Result: 106%

Task: Supply viability, T/C measured with 885512-296-R-J2-PDC complex spheroid viability for Nc1ccn(C2OC(CO)C(O)C2(F)F)c(=O)n1 (stereo unspecified) + Cc1[nH]c2ccc(F)cc2c1-c1nc2c3cccnc3c3ncccc3c2[nH]1 .
Result: 1.74%

Task: Supply viability, T/C measured with 885512-296-R-J2-PDC complex spheroid viability for Cc1cccc(N(C)C(=O)C2C(O)CCN2c2nc(C)cc(C(F)(F)F)c2C#N)c1 (stereo unspecified) + CN(C)c1ccc(Nc2c3ccc(NC(=O)CCN4CCCC4)cc3nc3cc(NC(=O)CCN4CCCC4)ccc23)cc1 .
Result: 108%

Task: Supply viability, T/C measured with 885512-296-R-J2-PDC complex spheroid viability for Cc1[nH]c2ccccc2c1CCNCc1ccc(/C=C/C(=O)NO)cc1 + Cc1[nH]c2ccc(F)cc2c1-c1nc2c3cccnc3c3ncccc3c2[nH]1 .
Result: 4.88%

Task: Supply viability, T/C measured with 885512-296-R-J2-PDC complex spheroid viability for CC1COCCN1c1cc(-c2ccnn2C)c2ccnc(-c3ccn[nH]3)c2n1 (stereo unspecified) + Cc1[nH]c2ccc(F)cc2c1-c1nc2c3cccnc3c3ncccc3c2[nH]1 .
Result: 1.11%

Task: Supply viability, T/C measured with 885512-296-R-J2-PDC complex spheroid viability for COc1cccc2c1C(=O)c1c(O)c3c(c(O)c1C2=O)CC(O)(C(=O)CO)CC3OC1CC(N)C(O)C(C)O1 (stereo unspecified) + Cc1[nH]c2ccc(F)cc2c1-c1nc2c3cccnc3c3ncccc3c2[nH]1 .
Result: 4.34%

Task: Supply viability, T/C measured with 885512-296-R-J2-PDC complex spheroid viability for C#Cc1c(F)ccc2cc(O)cc(-c3ncc4c(N5CC6CCC(C5)N6)nc(OCC56CCCN5CC(F)C6)nc4c3F)c12 (stereo unspecified) + CN(C)c1ccc(Nc2c3ccc(NC(=O)CCN4CCCC4)cc3nc3cc(NC(=O)CCN4CCCC4)ccc23)cc1 .
Result: 97.2%

Task: Supply viability, T/C measured with 885512-296-R-J2-PDC complex spheroid viability for CC1COCCN1c1cc(C2(S(C)(=N)=O)CC2)nc(-c2ccnc3[nH]ccc23)n1 (stereo unspecified) + CN(C)c1ccc(Nc2c3ccc(NC(=O)CCN4CCCC4)cc3nc3cc(NC(=O)CCN4CCCC4)ccc23)cc1 .
Result: 100%

Task: Supply viability, T/C measured with 885512-296-R-J2-PDC complex spheroid viability for COc1cc(C2c3cc4c(cc3C(OC3OC5COC(C)OC5C(O)C3O)C3COC(=O)C23)OCO4)cc(OC)c1O (stereo unspecified) + Cc1cnc(CNC(=O)c2c(=O)c3ccc(N4CCCN(C)CC4)nc3n3c2sc2ccccc23)cn1 .
Result: 29.6%

Task: Supply viability, T/C measured with 885512-296-R-J2-PDC complex spheroid viability for CC[C@@]1(O)C(=O)OCc2c1cc1n(c2=O)Cc2cc3c(CN(C)C)c(O)ccc3nc2-1 + CN(C)c1ccc(Nc2c3ccc(NC(=O)CCN4CCCC4)cc3nc3cc(NC(=O)CCN4CCCC4)ccc23)cc1 .
Result: 5.81%

====

# Tested on: 885512-296-R-J2-PDC complex spheroid viability
# protocol text: Anticancer human tumor 885512-296-R-J2-PDC cell line growth inhibition [GQUAD];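 further: spheroids exposed to the compounds for one week; percent of tumor spheroid viability relative to DMSO vehicle control wells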
# run parameters: second compound 1 µM; first compound 0.0316 µM; stronger effect = lower value
outcome measure: viability, T/C (%)
Respond numerically; units are % and should not be typed.

Task: Supply viability, T/C measured with 885512-296-R-J2-PDC complex spheroid viability for CCCS(=O)(=O)Nc1ccc(F)c(C(=O)c2c[nH]c3ncc(-c4ccc(Cl)cc4)cc23)c1F + Cc1cnc(CNC(=O)c2c(=O)c3ccc(N4CCCN(C)CC4)nc3n3c2sc2ccccc23)cn1 .
Result: 19.2

Task: Supply viability, T/C measured with 885512-296-R-J2-PDC complex spheroid viability for Cc1cccc(N(C)C(=O)C2C(O)CCN2c2nc(C)cc(C(F)(F)F)c2C#N)c1 (stereo not given) + Cc1[nH]c2ccc(F)cc2c1-c1nc2c3cccnc3c3ncccc3c2[nH]1 .
Result: 83.5

Task: Supply viability, T/C measured with 885512-296-R-J2-PDC complex spheroid viability for CCc1c2c(nc3ccc(O)cc13)-c1cc3c(c(=O)n1C2)COC(=O)[C@]3(O)CC + CN(C)c1ccc(Nc2c3ccc(NC(=O)CCN4CCCC4)cc3nc3cc(NC(=O)CCN4CCCC4)ccc23)cc1 .
Result: 2.24

Task: Supply viability, T/C measured with 885512-296-R-J2-PDC complex spheroid viability for C=CCn1c(=O)c2cnc(Nc3ccc(N4CCN(C)CC4)cc3)nc2n1-c1cccc(C(C)(C)O)n1 + Cc1[nH]c2ccc(F)cc2c1-c1nc2c3cccnc3c3ncccc3c2[nH]1 .
Result: 74.3

Task: Supply viability, T/C measured with 885512-296-R-J2-PDC complex spheroid viability for O=C(NO)c1cnc(N2CCN(S(=O)(=O)c3ccc4ccccc4c3)CC2)nc1 + Cc1[nH]c2ccc(F)cc2c1-c1nc2c3cccnc3c3ncccc3c2[nH]1 .
Result: 6.46

====

# System: 885512-296-R-J2-PDC complex spheroid viability
# protocol text: Anticancer human tumor 885512-296-R-J2-PDC cell line growth inhibition [GQUAD];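 further: spheroids exposed to the compounds for one week; percent of tumor spheroid viability relative to DMSO vehicle control wells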
# run parameters: second compound 0.1 µM; first compound 0.000999 µM; stronger effect = lower value
# Source text: DNA G-quadruplex Stabilizer Agents in Combinations in Complex Spheroids A high-throughput screen of multi-cell type tumor spheroids was designed to identify active combinations of DNA G-quadruplex stabilizer agents and targeted small molecules. […] Compounds. […] If the clinical Cmax for an agent had not been determined, the highest concentration tested was 10 microM. […]
outcome measure: viability, T/C

Task: Name the recorded viability, T/C of the item CCc1c2c(nc3ccc(O)cc13)-c1cc3c(c(=O)n1C2)COC(=O)[C@]3(O)CC + Cc1[nH]c2ccc(F)cc2c1-c1nc2c3cccnc3c3ncccc3c2[nH]1 in your answer.
Result: 25.8%

Task: Name the recorded viability, T/C of the item CC[C@@]1(O)C(=O)OCc2c1cc1n(c2=O)Cc2cc3c(CN(C)C)c(O)ccc3nc2-1 + CN(C)c1ccc(Nc2c3ccc(NC(=O)CCN4CCCC4)cc3nc3cc(NC(=O)CCN4CCCC4)ccc23)cc1 in your answer.
Result: 102%

Task: Name the recorded viability, T/C of the item Cc1[nH]c2ccccc2c1CCNCc1ccc(/C=C/C(=O)NO)cc1 + CN(C)c1ccc(Nc2c3ccc(NC(=O)CCN4CCCC4)cc3nc3cc(NC(=O)CCN4CCCC4)ccc23)cc1 in your answer.
Result: 95.6%

====

# System: 885512-296-R-J2-PDC complex spheroid viability
# protocol text: Anticancer human tumor 885512-296-R-J2-PDC cell line growth inhibition [GQUAD];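 further: spheroids exposed to the compounds for one week; percent of tumor spheroid viability relative to DMSO vehicle control wells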
# run parameters: second compound 3.16 µM; first compound 0.0316 µM; stronger effect = lower value
outcome measure: viability, T/C

Task: Name the recorded viability, T/C of the item CC(C)(O)C1CCC(Nc2ccc3ncc(-c4cccc(C(F)(F)F)c4)n3n2)CC1 (centres undefined) + Cc1[nH]c2ccc(F)cc2c1-c1nc2c3cccnc3c3ncccc3c2[nH]1 in your answer.
Result: 9.24%

Task: Name the recorded viability, T/C of the item CC(=O)O[C@H]1C(=O)[C@@]2(C)[C@H]([C@H](OC(=O)c3ccccc3)[C@]3(O)C[C@H](OC(=O)[C@H](O)[C@@H](NC(=O)c4ccccc4)c4ccccc4)C(C)=C1C3(C)C)[C@]1(OC(C)=O)CO[C@@H]1C[C@@H]2O + Cc1cnc(CNC(=O)c2c(=O)c3ccc(N4CCCN(C)CC4)nc3n3c2sc2ccccc23)cn1 in your answer.
Result: 12.7%

Task: Name the recorded viability, T/C of the item CC1COCCN1c1cc(C2(O)CC3CCC(C2)O3)c2cnn(-c3ccn[nH]3)c2n1 (centres undefined) + CN(C)c1ccc(Nc2c3ccc(NC(=O)CCN4CCCC4)cc3nc3cc(NC(=O)CCN4CCCC4)ccc23)cc1 in your answer.
Result: 18.8%

Task: Name the recorded viability, T/C of the item CC(=O)O[C@H]1C(=O)[C@@]2(C)[C@H]([C@H](OC(=O)c3ccccc3)[C@]3(O)C[C@H](OC(=O)[C@H](O)[C@@H](NC(=O)c4ccccc4)c4ccccc4)C(C)=C1C3(C)C)[C@]1(OC(C)=O)CO[C@@H]1C[C@@H]2O + CN(C)c1ccc(Nc2c3ccc(NC(=O)CCN4CCCC4)cc3nc3cc(NC(=O)CCN4CCCC4)ccc23)cc1 in your answer.
Result: 5.71%
